Each recorded value in this set is attributed to patent US6562825B1.

Where a name gives a salt, the structure may show the parent alone.
Form field: melting point (one value per entry).

Field: example entries. Status: answers known.
compound	melting point
O=C(O)CNC(=O)COc1cc(Cl)ccc1C(=O)NCCN1CCN(Cc2ccc(Cl)c(Cl)c2)CC1 [Example 12]	214 to 216 °C
CC(c1ccc(Cl)cc1)N1CCN(CCNC(=O)c2ccc(Cl)cc2OCC(=O)N(C)C)CC1 (stereo not drawn) (as salt: hydrochloride) [Example 9]	216 to 217 °C
CN(C)C(=O)COc1cc(Cl)ccc1C(=O)N(C)CCN1CCN(Cc2ccc(Cl)c(Cl)c2)CC1 (as salt: hydrochloride) [Example 13, trihydrochloride]	252 to 253 °C
CNC(=O)COc1cc(Cl)ccc1C(=O)NCCN1CCN(Cc2ccc(Cl)c(Cl)c2)CC1 [Example 6]	137 to 138 °C
CN(C)CCN(C)C(=O)COc1cc(Cl)ccc1C(=O)NCCN1CCN(Cc2ccc(Cl)c(Cl)c2)CC1	220 to 222 °C

Next, consider the following compound.
Recorded melting point of CC(CO)NC(=O)COc1cc(Cl)ccc1C(=O)NCCN1CCN(Cc2ccc(Cl)c(Cl)c2)CC1 (stereo not drawn) [Example 4] , please.
115 to 116 °C

###

Where a name gives a salt, the structure may show the parent alone.
property_name: melting point

Recorded results for 2 molecules are shown here.
molecule	result
CCN(CC)C(=O)COc1cc(Cl)ccc1C(=O)NCCN1CCN(Cc2ccc(Cl)c(Cl)c2)CC1 (as salt: hydrochloride) [Example 10, dihydrochloride]	185 to 188 °C
CN(C)C(=O)COc1cc(Cl)ccc1C(=O)NCCN1CCN(C(c2ccccc2)c2ccccc2)CC1 (as salt: hydrochloride) [Example 14, trihydrochloride]	228 to 229 °C

Report melting point for O=C(NCCN1CCN(Cc2ccc(Cl)c(Cl)c2)CC1)c1ccc(Cl)cc1OCC(=O)N1CCCC1 please.
157 to 158 °C

Entry CC1CN(Cc2ccc(Cl)c(Cl)c2)C(C)CN1CCNC(=O)c1ccc(Cl)cc1OCC(=O)N(C)C (stereo not drawn) (as salt: hydrochloride) [Example 16, dihydrochloride] has what melting point?
220 to 221 °C

Consider the molecule CN(C)C(=O)COc1cc(Cl)ccc1C(=O)NCCN1CCN(Cc2ccc(Cl)c(Cl)c2)CC1 (as salt: hydrochloride) [Example 3, dihydrochloride] and give its measured melting point.
162 to 163 °C

###

# melting point values compiled below

Using the record for CC(C)(CO)NC(=O)COc1cc(Cl)ccc1C(=O)NCCN1CCN(Cc2ccc(Cl)c(Cl)c2)CC1 [Example 5] , report its melting point.
77 to 78 °C

###

Quick list: melting point per entry.

Consider the worked cases shown below.
>>> df
                                   molecule  property_name         result
0  CN(C)C(=O)COc1cc(Cl)ccc1C(=O)NCCN1CCN(CCc2ccccc2)CC1 [Example 1]  melting point  159 to 160 °C
1  O=C(O)COc1cc(Cl)ccc1C(=O)NCCN1CCN(Cc2ccc(Cl)c(Cl)c2)CC1 [Example 2]  melting point  118 to 120 °C

Would you kindly look at the next entry?
Which measured melting point value corresponds to NC(=O)COc1cc(Cl)ccc1C(=O)NCCN1CCN(Cc2ccc(Cl)c(Cl)c2)CC1 [Example 8] ?
120 to 122 °C
